# Test system: SK-MEL-28 melanoma
# Measurement Notes: NCI-60 one-dose screen, 48 h (100 = growth as untreated, 0 = no growth, -100 = all killed)
# Conditions: 10 µM unless noted
Compounds without any hit were thinned out: in the full panel of roughly 83,000, 20% have a hit.
Short version: growth at least 90% is class 1, less is class 0.

Compound	Label Class
Nc1nc(N)c2cc(CNc3ccc(Cl)c(Cl)c3)ccc2n1	class 0
Cc1ccc(-c2cnc3sc4ccc(Cl)cc4n23)cc1	class 1
CC1(C)C2CCC(O)(C(=O)O)C1C2 (centres undefined)	class 1
CC1=NC(c2ccc(Cl)cc2)C2=C(N1)/C(=C/c1ccc(Cl)cc1)CCC2 (centres undefined)	class 1
COc1cc(-c2csc(NC(=O)Nc3cccc(C(F)(F)F)c3)n2)cc(OC)c1OC	class 0
COC(=O)C(CCC(=O)CCl)N1C(=O)c2ccccc2C1=O (centres undefined)	class 0
CC(C)CC(NC(=O)OCC1c2ccccc2-c2ccccc21)C(=O)O (centres undefined)	class 1
FC(F)(F)C1=NNC(c2ccc3ccccc3c2)=NN1	class 1
CCCCN(CCCC)CCC(O)c1cc2ccc(C(F)(F)F)cc2c2cc(C(F)(F)F)ccc12 (centres undefined)	class 0
